Experiment: physchem
Conditions: buffer
Field: solubility at 24 h. Provide a value for each of the compounds that follow.
Please state the figure in µM; there is no need to write the unit.

What value of measured solubility at 24 h is listed for `CC(C)n1cc(S(=O)(=O)c2ccc(NC(=O)[C@@H]3C[C@H]3c3cccnc3)cc2)cn1` ? 59

What value of measured solubility at 24 h is listed for Cc1nn(C(C)C)cc1S(=O)(=O)c1ccc(NC(=O)[C@@H]2C[C@H]2c2cccnc2)cc1 (racemic) ? 1

What value of measured solubility at 24 h is listed for `Nc1ccc(CNC(=O)Nc2ccc(S(=O)(=O)c3ccccc3)cc2)cn1` ? 99

What value of measured solubility at 24 h is listed for Cc1ccc(S(=O)(=O)c2ccc(NC(=O)[C@@H]3C[C@H]3c3cccnc3)cc2)cn1 (racemic) ? 6

What value of measured solubility at 24 h is listed for `O=S1(=O)N=C(NCc2ccc(S(=O)(=O)c3ccccc3)cc2)Nc2ccncc21` ? 1

What value of measured solubility at 24 h is listed for CC(C)(O)Cn1cc(S(=O)(=O)c2ccc(NC(=O)[C@@H]3C[C@H]3c3cccnc3)cc2)cn1 (racemic) ? 155

What value of measured solubility at 24 h is listed for Nc1ccc([C@@H]2C[C@H]2C(=O)Nc2ccc(S(=O)(=O)c3ccccc3)cc2)cn1 (racemic) ? 36

What value of measured solubility at 24 h is listed for O=C(Nc1ccc(S(=O)(=O)c2ccccc2)cc1)[C@@H]1C[C@H]1c1cccnc1 (single isomer, unassigned; enantiomer 2) ? 15

###

Experiment: Clearance in human liver microsomes at 1 uM up to 60 mins by LC-MS/MS analysis
Type: ADME
Field: CLhep predicted at 1 µM. Provide a value for each of the compounds that follow.
Please state the figure in mL/min/kg; there is no need to write the unit.

What value of measured CLhep predicted at 1 µM is listed for `Nc1ccc(CNC(=O)Nc2ccc(S(=O)(=O)c3ccccc3)cc2)cn1` ? 5

What value of measured CLhep predicted at 1 µM is listed for O=C(Nc1ccc(S(=O)(=O)c2cccc(C(F)(F)F)c2)cc1)[C@@H]1C[C@H]1c1cccnc1 (racemic) ? 10

What value of measured CLhep predicted at 1 µM is listed for O=C(Nc1ccc(S(=O)(=O)C2CCOCC2)cc1)[C@@H]1C[C@H]1c1cccnc1 (racemic) ? 13

What value of measured CLhep predicted at 1 µM is listed for N#CN=C(NCCCCCCOc1ccc(Cl)cc1)Nc1ccncc1 [CHS-828] ? 15

What value of measured CLhep predicted at 1 µM is listed for O=C(Nc1ccc(S(=O)(=O)N2CCOCC2)cc1)[C@@H]1C[C@H]1c1cccnc1 (racemic) ? 13

What value of measured CLhep predicted at 1 µM is listed for CC(C)(C)OC(=O)N1C[C@@H]2CCN(C(=O)[C@@H]3C[C@H]3c3cccnc3)[C@@H]2C1 (racemic) ? 18

What value of measured CLhep predicted at 1 µM is listed for Cc1ccc(S(=O)(=O)c2ccc(NC(=O)[C@@H]3C[C@H]3c3cccnc3)cc2)cn1 (racemic) ? 10

What value of measured CLhep predicted at 1 µM is listed for O=C(NCCCCCCOc1ccc(Cl)cc1)[C@@H]1C[C@H]1c1cccnc1 (racemic) ? 19

###

Assay: physchem
Settings: buffer
Field: solubility at 24 h. Provide a value for each of the compounds that follow.
Mention the unit after the number when you answer.

What value of measured solubility at 24 h is listed for `CC(C)n1cc(S(=O)(=O)c2ccc(NC(=O)[C@H]3C[C@@H]3c3cccnc3)cc2)cn1` ? 77 µM

What value of measured solubility at 24 h is listed for CC(C)(C)OC(=O)N1C[C@H]2CCN(C(=O)[C@@H]3C[C@H]3c3cccnc3)[C@H]2C1 (racemic) ? 165 µM

What value of measured solubility at 24 h is listed for CCn1cc(S(=O)(=O)c2ccc(NC(=O)[C@@H]3C[C@H]3c3cccnc3)cc2)cn1 (racemic) ? 72 µM

What value of measured solubility at 24 h is listed for O=C(NCCCCC1CCN(C(=O)c2ccccc2)CC1)[C@@H]1C[C@H]1c1cccnc1 (racemic) ? 223 µM

What value of measured solubility at 24 h is listed for O=C(Nc1ccc(S(=O)(=O)c2cccc(OC(F)(F)F)c2)cc1)[C@@H]1C[C@H]1c1cccnc1 (racemic) ? 1 µM

What value of measured solubility at 24 h is listed for Nc1ccc([C@@H]2C[C@H]2C(=O)NCc2ccc(S(=O)(=O)c3ccccc3)cc2)cn1 (racemic) ? 7 µM

What value of measured solubility at 24 h is listed for Cc1c(S(=O)(=O)c2ccc(NC(=O)[C@@H]3C[C@H]3c3cccnc3)cc2)cnn1C(C)C (racemic) ? 30 µM

What value of measured solubility at 24 h is listed for O=C(Nc1ccc(S(=O)(=O)c2cnn(CC(F)(F)F)c2)cc1)[C@@H]1C[C@H]1c1cccnc1 (racemic) ? 23 µM
